tgt: LNX1_1, Q8TBB1
Sequence (Q8TBB1 261-371): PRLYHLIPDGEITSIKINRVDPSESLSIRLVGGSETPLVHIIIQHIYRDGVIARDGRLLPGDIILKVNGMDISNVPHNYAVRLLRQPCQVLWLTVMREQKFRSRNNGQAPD
assay-procedure: holdup assay
Parameters: key: below the threshold = too weak to quantify, mostly under pKd 3.1 to 4
experimental-context: plain residues with an end cap or a label only (N-terminal biotin on a linker: ahx)

- binder: "ADENEQVSAV [RAPGEF6, Q8TEU7]"
  pKd: "below the threshold"
- binder: "KDECVIATEV [DLL1, O00548]"
  pKd: 3.72
- binder: "SKKNELFSNL [NHERF1, O14745]"
  pKd: "below the threshold"
- binder: "PKMKLNETSF [SHKBP1, Q8TBC3]"
  pKd: "below the threshold"
- binder: "AKPQPVDSWV [ARVCF, O00192]"
  pKd: "below the threshold"
- binder: "HSATSVHTSV [MTMR1, Q13613]"
  pKd: "below the threshold"
- binder: "SAPATLSSRA [PDLIM2, Q96JY6]"
  pKd: 3.67
- binder: "KEYDDELTFF [USH1C, Q9Y6N9]"
  pKd: "below the threshold"
- binder: "YNSFLSVTTV [PDZRN3, Q9UPQ7]"
  pKd: 3.8
- binder: "VNENQKEYFF [CNTNAP4, Q9C0A0]"
  pKd: "below the threshold"
